System: OVCAR-4 ovarian
ASSAY OVERVIEW: NCI-60 one-dose screen, 48 h
CONDITION DETAILS: 10 µM
About 83,000 compounds went through this panel and 20% of them were active in at least one assay; those are over-represented in the sample as a whole. Active and inactive are the calls of the source. Rule for the calls: active = growth percent below 10; inactive = the rest.
Outcome codes: active, inactive

[
  {
    "COMPOUND": "N#CCc1csc(Cc2ccccc2)n1",
    "MEASUREMENT TARGET": "OVCAR-4 ovarian",
    "ASSIGNED CLASS": "inactive"
  },
  {
    "COMPOUND": "CC(C)(C)c1ccc(S(=O)(=O)Oc2ccc(NC(=O)C3CCCCC3)cc2)cc1",
    "MEASUREMENT TARGET": "OVCAR-4 ovarian",
    "ASSIGNED CLASS": "inactive"
  },
  {
    "COMPOUND": "CCN(CCCNc1cc2c(c(N)c1S(=O)(=O)O)C(=O)c1ccccc1C2=O)c1ccccc1",
    "MEASUREMENT TARGET": "OVCAR-4 ovarian",
    "ASSIGNED CLASS": "inactive"
  },
  {
    "COMPOUND": "O=S(=O)(O)c1cccc(Nc2ccc3ccccc3c2)c1",
    "MEASUREMENT TARGET": "OVCAR-4 ovarian",
    "ASSIGNED CLASS": "inactive"
  },
  {
    "COMPOUND": "CSc1nc(S(C)(=O)=O)nc2[nH]c(=O)[nH]c12",
    "MEASUREMENT TARGET": "OVCAR-4 ovarian",
    "ASSIGNED CLASS": "inactive"
  },
  {
    "COMPOUND": "COc1ccc(/C(=N\\N)C(=O)c2ccccc2)cc1 (tested in a mixture with another compound)",
    "MEASUREMENT TARGET": "OVCAR-4 ovarian",
    "ASSIGNED CLASS": "inactive"
  },
  {
    "COMPOUND": "CCC(CC)n1c(C)cc(=O)n1C(CC)CC",
    "MEASUREMENT TARGET": "OVCAR-4 ovarian",
    "ASSIGNED CLASS": "inactive"
  },
  {
    "COMPOUND": "O=c1cn[nH]c2ccc(Br)cc12",
    "MEASUREMENT TARGET": "OVCAR-4 ovarian",
    "ASSIGNED CLASS": "inactive"
  },
  {
    "COMPOUND": "Cc1ccc(S(=O)(=O)N/N=C2\\CCCc3ccccc32)cc1",
    "MEASUREMENT TARGET": "OVCAR-4 ovarian",
    "ASSIGNED CLASS": "inactive"
  },
  {
    "COMPOUND": "Cc1cc(O)ccc1C1=NN(c2ccc(S(C)(=O)=O)cc2)C(=O)CC1",
    "MEASUREMENT TARGET": "OVCAR-4 ovarian",
    "ASSIGNED CLASS": "inactive"
  },
  {
    "COMPOUND": "N=C1S/C(=C/c2ccc(-c3ccc4c(c3)C(=O)NC4=O)o2)C(=O)N1c1ccc(Br)cc1",
    "MEASUREMENT TARGET": "OVCAR-4 ovarian",
    "ASSIGNED CLASS": "active"
  }
]

All values here come from PubChem BioAssay (NCI).
